Exercise: for every item that follows, state its recorded growth AUC normalised to DMSO control.
Tested on: P. vulgatus WT
EXPERIMENT_DESCRIPTION: growth AUC normalised to DMSO control (median) (fraction of control); higher = less growth inhibition, active = hit call of the paper;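 note: active when median AUC fell below 0.1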
EXPERIMENTAL_SETUP: 20 µM
Numbers only.

COMPOUND | READING
c1ccc2c(c1)Nc1ccccc1S2 [Phenothiazine] | 1.01
CN(C)C(=O)Oc1cccc([N+](C)(C)C)c1 [Neostigmine bromide] | 0.997

Now, please, on to the next compound.
**Query** Report measured growth AUC normalised to DMSO control; entry is C[C@]12CCC(=O)C=C1CC[C@@H]1[C@@H]2C(=O)C[C@]2(C)C(=O)CC[C@@H]12 [Adrenosterone]
**Result** 1.02

###

Exercise: for every item that follows, state its recorded growth AUC normalised to DMSO control.
System: P. vulgatus RND KO
EXPERIMENT_DESCRIPTION: growth AUC normalised to DMSO control (median) (fraction of control); higher = less growth inhibition, active = hit call of the paper
EXPERIMENTAL_SETUP: 20 µM
Counter-ions that a name gives are not always drawn.
One number for each entry.

Answer for every listed entry: what is its growth AUC normalised to DMSO control? The entries follow.
1. C[C@]12CCC(=O)C(O)=C1CC[C@@H]1[C@@H]2CC[C@]2(C)C(=O)CC[C@@H]12 [Formestane]
2. N[C@@H]1C[C@H]1c1ccccc1 [Tranylcypromine hydrochloride]

**Result**
[0.976, 1.01]

Answer for every listed entry: what is its growth AUC normalised to DMSO control? The entries follow.
1. Cc1cccc(C)c1NC(=O)CN1CCCC1=O [Nefiracetam]
2. CCCC[N+]1(C)[C@@H]2C[C@@H](OC(=O)[C@H](CO)c3ccccc3)C[C@H]1[C@@H]1O[C@@H]12 (stereo partly drawn) [N-Butylscopolammonium bromide]

**Result**
1: 1.01; 2: 1

Answer for every listed entry: what is its growth AUC normalised to DMSO control? The entries follow.
1. C[C@]12CC[C@H]3[C@@H](CCC4=CC(=O)CC[C@@H]43)[C@@H]1CC[C@@H]2O [Nandrolone]
2. CC(=O)O[C@H]1C[C@H](O[C@H]2[C@@H](O)C[C@H](O[C@H]3[C@@H](O)C[C@H](O[C@H]4CC[C@@]5(C)[C@H](CC[C@@H]6[C@@H]5C[C@@H](O)[C@]5(C)[C@@H](C7=CC(=O)OC7)CC[C@]65O)C4)O[C@@H]3C)O[C@@H]2C)O[C@H](C)[C@H]1O[C@@H]1O[C@H](CO)[C@@H](O)[C@H](O)[C@H]1O [Lanatoside C]
3. CC(C)(C)NCC(O)c1ccccc1Cl (stereo not drawn) [Tulobuterol Hydrochloride]
4. O=C(CCCN1CCC2(CC1)C(=O)NCN2c1ccccc1)c1ccc(F)cc1 [Spiperone]

**Result**
1: 0.999; 2: 1.01; 3: 1.01; 4: 0.98

Answer for every listed entry: what is its growth AUC normalised to DMSO control? The entries follow.
1. Nc1ccncc1 [Dalfampridine]
2. NC(=O)C[S+]([O-])C(c1ccccc1)c1ccccc1 (stereo not drawn) [Modafinil]
3. CC[N+]1(C)CCCC(OC(=O)C(O)(c2ccccc2)c2ccccc2)C1 (stereo not drawn) [Pipenzolate bromide]
4. C[C@]12CC[C@@H]3c4ccc(OC(=O)N(CCCl)CCCl)cc4CC[C@H]3[C@@H]1CC[C@@H]2O [Estramustine]
5. CC(=O)OC1CN2CCC1CC2 (stereo not drawn) [Aceclidine hydrochloride]
6. COc1cccc(C2(O)CCCCC2CN(C)C)c1 (stereo not drawn) [Tramadol hydrochloride]
7. C#C[C@]1(O)C=C[C@H]2[C@@H]3CCC4=CC(=O)CC[C@@H]4[C@H]3CC[C@@]21CC [Gestodene]

**Result**
[1, 1, 1, 0.982, 0.994, 0.988, 0.978]

Answer for every listed entry: what is its growth AUC normalised to DMSO control? The entries follow.
1. CC(O)(CS(=O)(=O)c1ccc(F)cc1)C(=O)Nc1ccc(C#N)c(C(F)(F)F)c1 (stereo not drawn) [Bicalutamide]
2. CCC(COC(=O)c1cc(OC)c(OC)c(OC)c1)(c1ccccc1)N(C)C (stereo not drawn) [Trimebutine]
3. CCC1(c2cccc(O)c2)CCCCN(C)C1 (stereo not drawn) [Meptazinol hydrochloride]
4. NC(=O)CN1CC(O)CC1=O (stereo not drawn) [Oxiracetam]
5. C=C[C@H]1CN2CC[C@H]1C[C@H]2[C@H](OC(=O)OCC)c1ccnc2ccc(OC)cc12 [Quinine ethyl carbonate]

**Result**
0.982
1
0.993
1.02
1.01

Answer for every listed entry: what is its growth AUC normalised to DMSO control? The entries follow.
1. CC(C)C[C@H](CN)CC(=O)O [Pregabalin]
2. CCNCC(O)c1cccc(O)c1 (stereo not drawn) [Etilefrine hydrochloride]
3. O=c1[nH]c2ccccc2n1CCCN1CCC(n2c(=O)[nH]c3cc(Cl)ccc32)CC1 [Domperidone]

**Result**
[0.971, 0.997, 1]
